Assay: Quantitative High-Throughput drug screen in 47 multiple myeloma cell lines against the NCATS MIPE library collection: NCIH929_DSMZ cell viability assay (AID 1918978); further: nearly all actives have a fitted effect of over 35% in size
Details: NCI-H929 myeloma viability, CellTiter-Glo ATP, 48 h; series mostly up to 45.8 µM
Results filed as inconclusive are left out. Calls of active or inactive are those of the source. The call rests on the fitted dose curve; in most records, active means well fitted cell-killing curve with a large enough effect; inconclusive means small, poorly fitted or top-dose-only effect; inactive means no such curve, though single readings can be large or run the other way.
Log the outcome using a class from active, inactive

Look over these answered cases.
sample_smiles=CC(=O)Nc1nc(C)c(-c2ccc(Cl)c(S(=O)(=O)NCCO)c2)s1 group_label=active
sample_smiles=Cc1cn2cc(C(=O)N(C)CCO)cc(N[C@@H]3CCOc4cccc(C)c43)c2n1 group_label=inactive

Continue with the compound presented below.
Query block: Look up the recorded call for NC(=O)Nc1cc(-c2cccc(F)c2)sc1C(=O)N[C@H]1CCCNC1 in this test.
Result block: active

* * *

Test: Quantitative High-Throughput drug screen in 47 multiple myeloma cell lines against the NCATS MIPE library collection: MOLP8_DSMZ cell viability assay (AID 1918977); further: potency means the concentration at half of the fitted maximal effect; nearly all actives have a fitted effect of over 45% in size
Settings: MOLP8 myeloma viability, CellTiter-Glo ATP luminescence, 48 h; series mostly up to 45.8 µM
Description: PI: Beverly A. Mock Ph.D. Laboratory of Cancer Biology and Genetics, Center for Cancer Research, National Cancer Institute, National Institute of Health, Bethesda, Maryland […] 5; Detector; 425V; Luminescence; Viewlux PerkinElmer. […] 1. […] Briefly, the corresponding myeloma cell lines were screened in 1,536-well plates with 500 cells, 5-uL per well for inhibition of cell viability (assessed by measuring ATP levels with CellTiterGlo). […]
Records with an inconclusive call do not appear. The source made the active and inactive calls. The call rests on the fitted dose curve; in most records, active means well fitted cell-killing curve with a large enough effect; inconclusive means small, poorly fitted or top-dose-only effect, or effect the other way; inactive means no such curve, though single readings can be large or run the other way.
Quantity Measured: Potency

Query block: Which Potency is reported for this compound? CN1CC[C@@H](c2c(O)cc(O)c3c(=O)cc(-c4ccccc4Cl)oc23)[C@@H](O)C1
Result block: 0.0526 µM (active)

* * *

Test: Identifying Small Molecule Inhibitors of Pancreatic Cancer Stem Cells (Panc1, Adherent) (AID 1259362)
Settings: viability; series mostly up to 46.1 µM
Inconclusive results are not listed. Active and inactive are the calls of the source. Calls follow the shape of the dose curve; as a rule, active = well fitted cell-killing curve with a large enough effect; inconclusive = small, poorly fitted or top-dose-only effect, or effect the other way, or another doubt; inactive = no such curve, though single readings can be large or run the other way.
Log the outcome using a class from true = active, false = inactive

Look over these answered cases.
sample_smiles=O=C(C=Cc1cccnc1)NCCCCC1CCN(C(=O)c2ccccc2)CC1 group_label=false
sample_smiles=Cc1ccc(C(=O)Nc2cccc(C(F)(F)F)c2)cc1-c1ccc2nc(NCCN3CCOCC3)ncc2c1 group_label=true
sample_smiles=C1=CCOCc2cc(ccc2OCCN2CCCC2)Nc2nccc(n2)-c2cccc(c2)OCC1 group_label=true

Query block: Look up the recorded call for COc1cc2ncnc(Nc3ccc(F)c(Cl)c3)c2cc1NC(=O)C=CCN1CCCCC1 in this test.
Result block: true

* * *

Assay: Quantitative High-Throughput drug screen in 47 multiple myeloma cell lines against the NCATS MIPE library collection: AMO1_DSMZ cell viability assay (AID 1918927; further: nearly all actives have a fitted effect of over 30% in size; further: potency means the concentration at half of the fitted maximal effect)
Conditions: AMO1 myeloma cells viability, CellTiter-Glo ATP luminescence, 48 h; series mostly up to 45.8 µM
Inconclusive results are not listed. Activity calls are given as the source filed them. Calls come from the whole dose curve; as a rule, active = well fitted cell-killing curve with a large enough effect; inconclusive = small, poorly fitted or top-dose-only effect, or effect the other way; inactive = no such curve, though single readings can be large or run the other way.
Quantity Measured: Potency

Recorded Potency, per entry:
molecule=CC(C)=CCCC(C)=CCCC(C)=CCSc1ccccc1C(=O)O val="4180 nM (active)"
molecule="COc1ccc(-c2cc3c(C)nc(N)nc3n(C3CCC(OCCO)CC3)c2=O)cn1 (stereo not drawn)" val="41.8 nM (active)"
molecule=Nc1cc(C(F)(F)F)c(-c2cc(N3CCOCC3)nc(N3CCOCC3)n2)cn1 val="105 nM (active)"
molecule=NCC(=O)Nc1ccc(-n2nc(C(F)(F)F)cc2-c2ccc3c(ccc4ccccc43)c2)cc1 val="66.2 nM (active)"
molecule=COc1cc2c(cc1-c1c(C)noc1C)ncc1[nH]c(=O)n([C@H](C)c3ccccn3)c12 val="332 nM (active)"
molecule=CC(=O)c1c(C)c2cnc(Nc3ccc(N4CCNCC4)cn3)nc2n(C2CCCC2)c1=O val="16600 nM (active)"

Query block: Which Potency is reported for this molecule? O=c1[nH]c(=O)n(C2CCCO2)cc1F (stereo not drawn)
Result block: inactive

Query block: Which Potency is reported for this molecule? Cc1ccc(C(N)=O)cc1Nc1nccc(-c2cn(C(C)C)c3cnccc23)n1
Result block: 2640 nM (active)

Query block: Which Potency is reported for this molecule? O=C(CCCCCCNC(=O)c1cnc(N(c2ccccc2)c2ccccc2)nc1)NO
Result block: 4690 nM (active)

Query block: Which Potency is reported for this molecule? CC(C)(O)c1cc2nc(-c3cnc(N)nc3)nc(N3CCOCC3)c2s1
Result block: 93.5 nM (active)

Query block: Which Potency is reported for this molecule? CCCCCN(CCC12CC3CC(CC(C3)C1)C2)C(=O)NCCCc1ccncc1
Result block: 14800 nM (active)

Query block: Which Potency is reported for this molecule? Cc1ccc(NC(=O)C2(c3ccc4c(c3)OC(F)(F)O4)CC2)nc1-c1cccc(C(=O)O)c1
Result block: 52.6 nM (active)

Query block: Which Potency is reported for this molecule? CCCCCCCCCC(=O)N[C@@H](Cc1c[nH]c2ccccc12)C(=O)N[C@H](CC(N)=O)C(=O)N[C@@H](CC(=O)O)C(=O)N[C@@H]1C(=O)NCC(=O)N[C@@H](CCCN)C(=O)N[C@@H](CC(=O)O)C(=O)N[C@H](C)C(=O)N[C@@H](CC(=O)O)C(=O)NCC(=O)N[C@H](CO)C(=O)N[C@@H]([C@@H](C)CC(=O)O)C(=O)N[C@@H](CC(=O)c2ccccc2N)C(=O)O[C@@H]1C
Result block: inactive

* * *

Assay: qHTS of pediatric cancer cell lines to identify multiple opportunities for drug repurposing: Confirmatory screen for LAN-5 cells (AID 1347113); further: nearly all actives have a fitted effect of over 65% in size; further: potency means the concentration at half of the fitted maximal effect
Details: LAN-5 neuroblastoma cell viability; series mostly up to 45.9 µM
Records with an inconclusive call do not appear. Active and inactive are the calls of the source. The call rests on the fitted dose curve; in most records, active means well fitted cell-killing curve with a large enough effect; inconclusive means small, poorly fitted or top-dose-only effect, or effect the other way; inactive means no such curve, though single readings can be large or run the other way.
Quantity Measured: Potency

Recorded Potency, per entry:
sample_smiles=COc1cccc(Nc2c(C(N)=O)cnc3c(C)cc(S(=O)(=O)c4cccc(C(=O)N(C)C)c4)cc23)c1 val=inactive
sample_smiles=CN(C)CC(C)(C)CNc1nn2c(-c3ccccc3)nnc2cc1C1CCC1 val=inactive
sample_smiles=COc1c(OCCCN2CCOCC2)ccc2c3n(c(=NC(=O)c4cnc(N)nc4)nc12)CCN3 val="644 nM (active)"
sample_smiles=CC(C)(C)c1cc(NC(=O)Nc2ccc(-c3cn4c(n3)sc3cc(OCCN5CCOCC5)ccc34)cc2)no1 val="23300 nM (active)"
sample_smiles=CNC(=O)c1nn(C)c2c1C(C)(C)Cc1cnc(Nc3ccc(N4CCN(C)CC4)cc3)nc1-2 val="1850 nM (active)"

Query block: Which Potency is reported for this compound? Nc1ncnc2c1c(-c1cnc3[nH]ccc3c1)nn2C1CCCC1
Result block: 1470 nM (active)

Query block: Which Potency is reported for this compound? NCC(=O)Nc1ccc(-n2nc(C(F)(F)F)cc2-c2ccc3c(ccc4ccccc43)c2)cc1
Result block: 2930 nM (active)

Query block: Which Potency is reported for this compound? CCNC(=O)Nc1ccc2ncc(Nc3ccc(C)cc3)nc2n1
Result block: inactive

Query block: Which Potency is reported for this compound? C[C@@]12O[C@@H](C[C@]1(O)CO)n1c3ccccc3c3c4c(c5c6ccccc6n2c5c31)CNC4=O
Result block: 5220 nM (active)

Query block: Which Potency is reported for this compound? CC(C)c1cc(-c2n[nH]c(=O)n2-c2ccc3c(ccn3C)c2)c(O)cc1O
Result block: inactive

* * *

Reported activity, percent of control values follow for various molecules
Assay: qHTS profiling for inhibitors of Plasmodium falciparum (DD2) proliferation (AID 743323)
Conditions: lower = more inhibition; at 28.7 µM (top of the series)
Number in %, nothing else.

Recorded activity, percent of control, per entry:
molecule=CCC[C@H](NC(=O)C(C#N)=Cc1cccc(Br)n1)c1ccccc1 val=23.2
molecule=CN1CCN(c2cc(C(=O)Nc3ccc4c(c3)-c3c(c(C(N)=O)nn3-c3ccc(F)cc3)CC4)c(Cl)cn2)CC1 val=0.473
molecule=O=C(O)[C@H](Cc1c[nH]c2ccccc12)N1C(=O)c2ccccc2C1=O val=104
molecule=COc1cc2c(Oc3ccc4[nH]c(C)cc4c3F)ncnc2cc1OCCCN1CCCC1 val=1.27
molecule="C=C1C(=CC=C2CCCC3(C)[C@@H]([C@H](C)C=CC=CC(O)(CC)CC)CC[C@@H]23)C[C@@H](O)C[C@@H]1O (stereo partly specified)" val=71.5
molecule=Nc1ccc(C(=O)c2cc3c(ccc4ccccc43)[nH]2)cc1 val=98.8
molecule=COC(=O)[C@]12CCC(C)(C)C[C@@H]1[C@@H]1C(=O)C=C3[C@@]4(C)C=C(C#N)C(=O)C(C)(C)[C@@H]4CC[C@@]3(C)[C@]1(C)CC2 val=0.779
molecule=CCCCCN(CCC12CC3CC(CC(C3)C1)C2)C(=O)NCCCc1ccncc1 val=32.6

Query block: Which activity, percent of control is reported for this molecule? COc1cc(=C2C=c3ccccc3=N2)[nH]c1=Cc1[nH]c(C)cc1C
Result block: 1.12

Query block: Which activity, percent of control is reported for this molecule? CC(C)C[C@H](NC(=O)CNC(=O)c1cc(Cl)ccc1Cl)B(O)O
Result block: -0.333

Query block: Which activity, percent of control is reported for this molecule? O=C(c1ccc(Nc2nccc(-c3cc4ccccc4s3)n2)cc1)N1CCC(N2CCCC2)CC1
Result block: -0.895

Query block: Which activity, percent of control is reported for this molecule? O=C(C=Cc1c(C(=O)O)[nH]c2cc(Cl)cc(Cl)c12)Nc1ccccc1
Result block: 103

Query block: Which activity, percent of control is reported for this molecule? CC[C@@H]1C(=O)N(C)c2cnc(Nc3ccc(C(=O)NC4CCC(N5CCN(CC6CC6)CC5)CC4)cc3OC)nc2N1C(C)C (stereo partly specified)
Result block: 1.64

Query block: Which activity, percent of control is reported for this molecule? Cc1cn2c(-c3cn[nH]c3)cnc2c(Nc2ccc(C(=O)N3CCNCC3)cc2F)n1
Result block: 12.6

Query block: Which activity, percent of control is reported for this molecule? CC(=O)OCC(=O)[C@@]1(O)[C@H](C)C[C@H]2[C@@H]3C=C(C)C4=Cc5c(cnn5-c5ccccc5)C[C@]4(C)[C@@H]3[C@@H](O)C[C@@]21C
Result block: -0.0557

Query block: Which activity, percent of control is reported for this molecule? CCN(CC)CCCCNc1ncc2cc(-c3cc(OC)cc(OC)c3)c(NC(=O)NC(C)(C)C)nc2n1
Result block: 1.21
